- tested_system: DNA-PK (Homo sapiens (Human), UniProt P78527)
- experiment_summary: DNA-PK assay (biochemical), flashplate 33P-ATP kinase assay
- settings: Table 5
pIC50: −log10 of the molar value.
readout_kind: pIC50

Sample Cc1nc(C(O)c2cnc(F)c(-c3ncnc4cc(N5CCOCC5)ncc34)c2)sc1C (stereo not drawn) [Example 196] ; pIC50 observed: 7.52 to 8.15

Sample OC(c1cccc(-c2ncnc3cc(N4CCOCC4)ccc23)c1)(c1nccs1)C(F)(F)F (stereo not drawn) [Example 173] ; pIC50 observed: > 8.52

Sample Cc1ccc(C(C)(O)c2nccs2)cc1-c1ncnc2cc(N3CCOCC3)ccc12 (stereo not drawn) ; pIC50 observed: < 7.52
